procedure summary: Metabolic stability in CD-1 mouse liver microsome at 1 uM in presence of NADPH-regeneration system incubated for 60 mins by LC/MS analysis
Format: ADME
study conditions: liver microsomes, read-out: Stability
measured quantity: remaining at 1 h, 1 µM (%)

Worked examples, 6 molecules total:
{"structure smiles string": "COc1cc(-c2cncc3c2COc2cc(N4CCN(C)CC4)ccc2-3)cc(OC)c1OC", "unit text": "%", "remaining at 1 h, 1 µM": 0.9}
{"structure smiles string": "COc1cc(-c2cncc3c2CN(C)Cc2cc(N4CCNCC4)ccc2-3)cc(OC)c1OC", "unit text": "%", "remaining at 1 h, 1 µM": 98.6}
{"structure smiles string": "COc1cc(-c2cncc3c2CN(C)Cc2cc(N4CCN(C)CC4)ccc2-3)cc(OC)c1OC", "unit text": "%", "remaining at 1 h, 1 µM": 65}
{"structure smiles string": "COc1cc(-c2cncc3c2oc2cc(N4CCN(C)CC4)ccc23)cc(OC)c1OC", "unit text": "%", "remaining at 1 h, 1 µM": 9.5}
{"structure smiles string": "COc1cc(-c2cncc3c2COCc2cc(N4CCNCC4)ccc2-3)cc(OC)c1OC", "unit text": "%", "remaining at 1 h, 1 µM": 75.7}
{"structure smiles string": "COc1cc(-c2cncc3c2CCOc2cc(N4CCNCC4)ccc2-3)cc(OC)c1OC", "unit text": "%", "remaining at 1 h, 1 µM": 70.9}

A: COc1cc(-c2cncc3c2CCOc2cc(N4CCN(C)CC4)ccc2-3)cc(OC)c1OC
B: COc1cc(-c2cncc3c2COCc2cc(N4CCN(C)CC4)ccc2-3)cc(OC)c1OC
Query: Lower value for measured remaining at 1 h, 1 µM? Options: A , B Refer to your chosen entry by its label in the reply.
Reply: B

====

procedure summary: Apparent permeability across basolateral to apical side in human Caco-2 cells incubated for 2 hrs by LC/MS analysis
Format: ADME, cell-based
measured quantity: Papp B→A at 2 h (×10⁻⁶ cm/s)

{"structure smiles string": "COc1cc(-c2cncc3c2COc2cc(N4CCN(C)CC4)ccc2-3)cc(OC)c1OC", "recorded number": 9}
{"structure smiles string": "COc1cc(-c2cncc3c2CCOc2cc(N4CCN(C)CC4)ccc2-3)cc(OC)c1OC", "recorded number": 11.5}
{"structure smiles string": "COc1cc(-c2cncc3c2CN(C)Cc2cc(N4CCN(C)CC4)ccc2-3)cc(OC)c1OC", "recorded number": 2.5}

a: COc1cc(-c2cncc3c2COCc2cc(N4CCNCC4)ccc2-3)cc(OC)c1OC
b: COc1cc(-c2cncc3c2oc2cc(N4CCN(C)CC4)ccc23)cc(OC)c1OC
c: COc1cc(-c2cncc3c2CN(C)Cc2cc(N4CCNCC4)ccc2-3)cc(OC)c1OC
d: COc1cc(-c2cncc3c2COCc2cc(N4CCN(C)CC4)ccc2-3)cc(OC)c1OC
Query: Please give the order of these compounds when sorted by Papp B→A at 2 h, largest value leading. To answer, arrange all of the labels according to the requested order.
Reply: d, a, c, b
(d: 13.6 ×10⁻⁶ cm/s, a: 9.4 ×10⁻⁶ cm/s, c: 4.2 ×10⁻⁶ cm/s, b: 2.5 ×10⁻⁶ cm/s)

====

procedure summary: Drug concentration in NOD-SCID mouse plasma at 25 mg/kg, po measured at 6 hrs by LC-MS/MS analysis
Type: ADME, organism-based
measured quantity: concentration at 6 h (nM)

Worked examples, 2 compounds total:
{"structure smiles string": "COc1cc(-c2cncc3c2CN(C)Cc2cc(N4CCNCC4)ccc2-3)cc(OC)c1OC", "unit text": "nM", "recorded number": 1260}
{"structure smiles string": "COc1cc(-c2cncc3c2CCOc2cc(N4CCNCC4)ccc2-3)cc(OC)c1OC", "unit text": "nM", "recorded number": 1890}

A: COc1cc(-c2cncc(-c3ccc(N4CCNCC4)cc3)c2C)cc(OC)c1OC
B: COc1cc(-c2cncc3c2CN(C)Cc2cc(N4CCN(C)CC4)ccc2-3)cc(OC)c1OC
C: COc1cc(-c2cncc3c2CCOc2cc(N4CCN(C)CC4)ccc2-3)cc(OC)c1OC
Query: Please give the order of these compounds when sorted by concentration at 6 h, largest value leading. To answer, arrange all of the labels according to the requested order.
Reply: A, C, B

====

procedure summary: Apparent permeability across apical to basolateral side in human Caco-2 cells incubated for 2 hrs by LC/MS analysis
Assay type: ADME, cell-based
measured quantity: Papp A→B at 2 h (×10⁻⁶ cm/s)

{"structure smiles string": "COc1cc(-c2cncc3c2COCc2cc(N4CCN(C)CC4)ccc2-3)cc(OC)c1OC", "unit text": "×10⁻⁶ cm/s", "Papp A→B at 2 h": 16.5}

A: COc1cc(-c2cncc3c2CCOc2cc(N4CCNCC4)ccc2-3)cc(OC)c1OC
B: COc1cc(-c2cncc3c2CN(C)Cc2cc(N4CCNCC4)ccc2-3)cc(OC)c1OC
Query: // which entry has the larger Papp A→B at 2 h value, A or B ? Refer to your chosen entry by its label in the reply.
Reply: A
(A: 5.3 ×10⁻⁶ cm/s, B: 0.8 ×10⁻⁶ cm/s)

P: COc1cc(-c2cncc3c2COCc2cc(N4CCNCC4)ccc2-3)cc(OC)c1OC
Q: COc1cc(-c2cncc3c2CCOc2cc(N4CCN(C)CC4)ccc2-3)cc(OC)c1OC
R: COc1cc(-c2cncc3c2CN(C)Cc2cc(N4CCN(C)CC4)ccc2-3)cc(OC)c1OC
S: COc1cc(-c2cncc3c2COc2cc(N4CCN(C)CC4)ccc2-3)cc(OC)c1OC
Query: // smallest Papp A→B at 2 h at index 0, largest at the end To answer, arrange all of the labels according to the requested order.
Reply: R, P, S, Q
(R: 1.5 ×10⁻⁶ cm/s, P: 4.2 ×10⁻⁶ cm/s, S: 8.3 ×10⁻⁶ cm/s, Q: 13.9 ×10⁻⁶ cm/s)

====

procedure summary: Drug concentration in NOD-SCID mouse brain at 10 mg/kg, po measured at 2 hrs by LC-MS/MS analysis
Format: ADME, organism-based
study conditions: read-out: Ct
measured quantity: concentration at 2 h (nM)

{"structure smiles string": "COc1cc(-c2cncc3c2CCOc2cc(N4CCN(C)CC4)ccc2-3)cc(OC)c1OC", "unit text": "nM", "recorded number": 2410}

I: COc1cc(-c2cncc3c2CN(C)Cc2cc(N4CCN(C)CC4)ccc2-3)cc(OC)c1OC
II: COc1cc(-c2cncc(-c3ccc(N4CCNCC4)cc3)c2C)cc(OC)c1OC
Query: Lower value for measured concentration at 2 h? Options: I , II Refer to your chosen entry by its label in the reply.
Reply: II
(II: 2320 nM, I: 4130 nM)

====

procedure summary: Drug concentration in NOD-SCID mouse plasma at 25 mg/kg, po measured at 0.5 hrs by LC-MS/MS analysis
Assay type: ADME, organism-based
measured quantity: concentration at 0.5 h (nM)

Worked examples, 3 compounds total:
{"structure smiles string": "COc1cc(-c2cncc(-c3ccc(N4CCNCC4)cc3)c2C)cc(OC)c1OC", "concentration at 0.5 h (nM)": 3020}
{"structure smiles string": "COc1cc(-c2cncc3c2CN(C)Cc2cc(N4CCN(C)CC4)ccc2-3)cc(OC)c1OC", "concentration at 0.5 h (nM)": 134}
{"structure smiles string": "COc1cc(-c2cncc3c2CCOc2cc(N4CCN(C)CC4)ccc2-3)cc(OC)c1OC", "concentration at 0.5 h (nM)": 3650}

P: COc1cc(-c2cncc3c2CN(C)Cc2cc(N4CCNCC4)ccc2-3)cc(OC)c1OC
Q: COc1cc(-c2cncc3c2CCOc2cc(N4CCNCC4)ccc2-3)cc(OC)c1OC
Query: // which entry has the larger concentration at 0.5 h value, P or Q ? Refer to your chosen entry by its label in the reply.
Reply: Q
(Q: 729 nM, P: 323 nM)

====

measured on: Activin receptor type-1 (Homo sapiens, UniProt Q04771)
Sequence (Q04771 whole entry): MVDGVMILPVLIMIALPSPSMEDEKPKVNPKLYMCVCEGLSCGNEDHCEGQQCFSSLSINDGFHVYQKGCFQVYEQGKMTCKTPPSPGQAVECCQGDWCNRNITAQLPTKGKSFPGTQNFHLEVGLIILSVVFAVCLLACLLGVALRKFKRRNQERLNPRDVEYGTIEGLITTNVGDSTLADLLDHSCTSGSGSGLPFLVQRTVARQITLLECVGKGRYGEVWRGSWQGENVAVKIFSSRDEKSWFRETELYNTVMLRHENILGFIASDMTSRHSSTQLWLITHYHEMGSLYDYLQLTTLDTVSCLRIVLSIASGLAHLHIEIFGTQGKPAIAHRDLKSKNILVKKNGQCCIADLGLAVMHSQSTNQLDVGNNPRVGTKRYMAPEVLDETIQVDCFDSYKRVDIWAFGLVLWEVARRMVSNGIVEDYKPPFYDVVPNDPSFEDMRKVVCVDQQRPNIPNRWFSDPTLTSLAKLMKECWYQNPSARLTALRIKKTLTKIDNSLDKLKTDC
procedure summary: Inhibition of ALK2 in human HEK293 cells using NanoGlo as substrate incubated for 2 hrs by NanoBRET assay
Format: cell-based
pIC50: −log10 of the molar value.
measured quantity: pIC50

A: COc1cc(-c2cncc3c2CN(C)Cc2cc(N4CCNCC4)ccc2-3)cc(OC)c1OC
B: COc1cc(-c2cncc3c2CN(C)Cc2cc(N4CCN(C)CC4)ccc2-3)cc(OC)c1OC
Query: Lower value for measured pIC50? Options: A , B Refer to your chosen entry by its label in the reply.
Reply: B
